- ASSAY NAME: In vivo toxicological study in rats: haematology
- Design: species or system rats of the Wistar strain
- EXPERIMENTAL SETUP: male, 30 mg/kg oral daily 7 d
Task for the reader: assign each of the following compounds its reported HGB.
Give bare numbers, in g/dL.

Reference set (3 entries):
N#Cc1c(NC(=O)c2cccc3ccccc23)sc2c1CCN(CC(=O)Nc1cccc(Br)c1)C2: 14.4
N#Cc1c(NC(=O)c2cccc3ccccc23)sc2c1CCN(C(=O)Nc1ccccc1OC(F)(F)F)C2: 14.5
COc1ccc(C(=O)Nc2sc3c(c2C#N)CCCCC3)cc1OC: 15

# next compound below
QUERY: Tell me its HGB given COc1ccccc1NC(=O)N1CCc2c(sc(NC(=O)c3cccc4ccccc34)c2C#N)C1 as the entry.
RESULT: 15.6

// data source = patent US20260234159A1
